Below is a list of entries, each paired with its recorded melting point value.

Known results for molecules:
O=C(c1cccnc1)c1c(F)cc(F)cc1F | 38 to 40 °C
Cc1cc(C)nc(-n2nc(C)cc2NC(=O)CCl)n1 | 185 to 187 °C
O=C(O)c1ccc(SC(F)F)cc1 | 154 to 156 °C

**Query** Requested field: melting point. Item: COC(=O)c1cc(Cl)c2cc(Cl)ccc2n1
**Result** 157 to 159 °C

**Query** // next record N#Cc1cc(S(N)(=O)=O)ccc1Cl
**Result** 219 to 221 °C

====

Below is a list of entries, each paired with its recorded melting point value.

Known results for molecules:
COc1cc(C=O)ccc1[N+](=O)[O-] | 89 to 91 °C
CCOC(=O)C(=O)CC(=O)c1ccc(Cl)cc1Cl | 68 to 70 °C
O=C(Cc1ccc(Br)cc1)C(F)(F)F | 38 to 40 °C
Nc1nc(-c2ccc3c(c2)OCO3)cs1 | 176 to 180 °C
CC1(c2ccncc2)NC(=O)NC1=O (stereo not drawn) | 231 to 233 °C
NNC(=O)CNc1ccccc1F | 99 to 101 °C

**Query** Requested field: melting point. Item: Cc1ccccc1-c1nc(C(=O)O)cs1
**Result** 119 to 121 °C

**Query** // next record Nc1ccc(NC(=O)C2CCCO2)cc1C(F)(F)F (stereo not drawn)
**Result** 64 to 66 °C

**Query** // next record O=C(O)c1ccc(COc2ccccc2Br)cc1
**Result** 185 to 187 °C

**Query** // next record CC1CCN(S(=O)(=O)c2ccc(N)cc2)CC1
**Result** 108 to 110 °C

**Query** // next record CC1C(=O)NC1c1ccccc1 (stereo not drawn)
**Result** 92 to 94 °C

**Query** // next record O=C(O)C1CC(c2cc(F)ccc2F)=NO1 (stereo not drawn)
**Result** 135 to 137 °C
